Data credit: patent US9540427B2

Tested on: STAT3 signaling
METHOD_NOTES: Luciferase reporter assay (Mercury JAK-STAT Pathway Profiling system, GAS or STAT3 elements) in MCF-7 cells
Format: cell-based, human
Parameters: concentration or dose not given beside the values
RUN_CONDITIONS: luciferase reporter with GAS or STAT3 elements, basal expression, within one hour after treatment
Square brackets hold non-standard residues; d marks the D form. Ends that are not written are not given here. Dab = NCC[C@H](N)C(=O)O
# Activity, % of control listing for each entry below
# unit: % | format: bare number

SUBSTANCE: LDTRYLEQLHQLYS (LDTRYLEQLHQLYS-penetratin) [Hel2-Pen]
MEASURE_UNIT: %
Activity, % of control: 56
//
SUBSTANCE: LDTRYLEQLHKLYS (LDTRYLEQLHKLYS-penetratin) [Hel2B-Pen, penetratin fused to the C-terminus]
MEASURE_UNIT: %
Activity, % of control: 100
//
SUBSTANCE: LDTRYLEQLHDabLY (LDTRYLEQLH[Dab]LY; also: penetratin fused C-terminally) [Hel2H-Pen, penetratin fused to the C-terminus]
MEASURE_UNIT: %
Activity, % of control: 43
//
SUBSTANCE: Ac-DTRYLEQLHALY (Ac-DTRYLEQLHALY-penetratin; also: penetratin fused C-terminally) [Hel2A-3-Pen, penetratin fused to the C-terminus]
MEASURE_UNIT: %
Activity, % of control: 89
//
SUBSTANCE: DTRYLEQLHDabLY (DTRYLEQLH[Dab]LY; also: penetratin fused C-terminally) [Hel2I-Pen, penetratin fused to the C-terminus]
MEASURE_UNIT: %
Activity, % of control: 53

# evaluate next
Value of measured Activity, % of control for the entry DTRYLEQLHKLYS (DTRYLEQLHKLYS-penetratin) [Hel2A-Pen, penetratin fused to the C-terminus] : 100
